Test system: Renilla_ERa
Assay: Renilla signal in ERα counterscreen (Renilla_ERa)
Assay type: cell-based
Settings: Table 15; 10 uM; read-out: Renilla ERalpha transient, cmpd/DMSO (mean)
assay-metric: fold induction at 10 µM

INSERT INTO results (compound, subject_of_test, numeric_value) VALUES
  ('CC(=O)Nc1ccc(Br)c2nonc12 [Compound Z14]', 'Renilla_ERa', 1.1),
  ('COc1cccc(-c2noc(Cn3ncc(Cl)cc3=O)n2)c1 [Compound Z4]', 'Renilla_ERa', 1.1),
  ('Cc1ccc(NC(=O)c2noc3c2CC(C)(C)CC3)cc1C [Compound Z1]', 'Renilla_ERa', 1),
  ('CCOC(=O)c1cnc2c(C)cc(C)cc2c1NCCCOC [Compound Z71]', 'Renilla_ERa', 1),
  ('COc1cccc(-c2noc(Cn3nccc(Cl)c3=O)n2)c1 [Compound Z3]', 'Renilla_ERa', 1),
  ('CCOC(=O)c1cnc2c(C)cc(C)cc2c1N1CCC(N(C)C)CC1 [Compound Z68]', 'Renilla_ERa', 0.9),
  ('CCOC(=O)c1cnc2c(C)cc(C)cc2c1NCc1ccc(Cl)cc1 [Compound Z75]', 'Renilla_ERa', 0.9);

----------
Assay: PK in mice plasma
Assay type: in vivo
Conditions: mouse; Table 39; PO plasma, 3.18 mg/kg
assay-metric: MRT last (h)

INSERT INTO assay_data (molecule, numeric_value) VALUES
  ('COCCN[C@H]1CS(=O)(=O)C[C@@H]1S(=O)(=O)c1ccc(Cl)cc1 [Compound D136]', 1.04);

----------
Target: NR2F6 (Homo sapiens, UniProt P10588)
Construct: expressed in transfected cells; also transient transfection
Sequence (P10588 whole entry): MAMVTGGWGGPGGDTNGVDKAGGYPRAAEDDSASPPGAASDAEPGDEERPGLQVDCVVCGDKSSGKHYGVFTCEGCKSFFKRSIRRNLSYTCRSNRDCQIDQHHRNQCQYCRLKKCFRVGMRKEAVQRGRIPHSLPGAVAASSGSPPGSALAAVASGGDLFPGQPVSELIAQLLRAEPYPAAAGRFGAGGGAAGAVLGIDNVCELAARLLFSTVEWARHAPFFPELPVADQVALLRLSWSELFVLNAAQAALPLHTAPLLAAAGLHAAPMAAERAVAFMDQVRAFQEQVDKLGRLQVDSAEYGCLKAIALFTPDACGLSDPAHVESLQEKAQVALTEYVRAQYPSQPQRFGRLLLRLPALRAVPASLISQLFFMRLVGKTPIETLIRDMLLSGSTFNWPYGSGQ
Assay: NR2F6 agonist screening, Firefly signal cmpd/DMSO
Format: cell-based
Conditions: Table 13; repeat 1
Flag rule - Firefly, cmpd/DMSO repeat 1 less than 10 flags Y; the remaining entries get N.

INSERT INTO results (structure_as_smiles, cat) VALUES
  ('O=c1oc2ccc([N+](=O)[O-])cc2cc1S(=O)(=O)c1ccccc1', 'N'),
  ('COc1ccc2oc(=O)c(S(=O)(=O)c3cccc(Cl)c3)cc2c1', 'Y'),
  ('Cc1ccc(S(=O)(=O)c2cc3cc(Cl)ccc3oc2=O)cc1Cl', 'Y'),
  ('COC(=O)c1ccc2oc(=O)c(S(=O)(=O)c3ccc(F)cc3)cc2c1', 'N'),
  ('O=C(NCc1ccc(F)cc1)c1ccc2oc(=O)c(S(=O)(=O)c3ccc(F)cc3)cc2c1', 'N'),
  ('Cc1cc(S(=O)(=O)c2cc3cc(F)cc(F)c3oc2=O)ccc1F', 'N'),
  ('O=c1oc2ccccc2cc1S(=O)(=O)c1cccc(Cl)c1', 'Y'),
  ('COc1ccc(NC(=O)c2ccc3oc(=O)c(S(=O)(=O)c4ccc(Cl)cc4)cc3c2)cc1', 'N'),
  ('O=c1oc2ccc(F)cc2cc1S(=O)(=O)c1ccc(F)cc1', 'N'),
  ('O=c1oc2ccc([N+](=O)[O-])cc2cc1S(=O)(=O)c1ccc(F)cc1', 'N'),
  ('COc1cccc(NC(=O)c2ccc3oc(=O)c(S(=O)(=O)c4ccc(C)cc4)cc3c2)c1', 'N'),
  ('COc1ccc2oc(=O)c(S(=O)(=O)c3ccc(C(C)(C)C)cc3)cc2c1', 'Y'),
  ('CC(C)(C)c1ccc(S(=O)(=O)c2cc3cc(Br)ccc3oc2=O)cc1', 'N'),
  ('O=c1oc2ccc(Cl)cc2cc1S(=O)(=O)c1cc(F)cc(F)c1', 'N'),
  ('O=c1oc2ccccc2cc1S(=O)(=O)c1ccc(F)c(Cl)c1', 'N'),
  ('O=C(NCCc1ccccc1)c1ccc2oc(=O)c(S(=O)(=O)c3ccccc3)cc2c1', 'N'),
  ('O=c1oc2ccc(Cl)cc2cc1S(=O)(=O)c1ccccc1F', 'N'),
  ('Cc1ccc(NC(=O)c2ccc3oc(=O)c(S(=O)(=O)c4ccccc4)cc3c2)cc1', 'N');
